- Target Under Test: Recombinant soluble 60-mer human BAFF (His-HuBAFF 134-285) (human, UniProt Q9Y275 134-285)
- Test Protocol: cell-based or functional assay
Record True whenever Soluble 60-mer huBAFF (4 pM) Neutralization IC90 is at 30 pM or higher; record False when lower.

- Binder: "606H7F8 (antibody, V domains shown) VH: VQLVESGGGLVKPGGSLKLSCAASGFTFSSYDMSWVRQTPEKRLEWVAAINSYGVNTYYPDTVKDRFTISRDNAKNTLYLQMSSLRSEDTALYYCARLLIGPYYYAMDYWGQGTSVTVSS VL: DIQMTQSPASLSASVGETVTITCRASGNIHNYLAWYQQKQGKSPQLLVYNAKTLADGVPSRFSGSGSGTQFSLKINSLQPEDFGSYYCQHFWSTPYTFGGGTKLEIK"
  Class Assignment: "True"
- Binder: "320F9C5 (antibody, V domains shown) VH: QVTLKESGPGILQSSQTLSLTCSFSGFSLRTFGMGVGWIRQPSGKGLEWLAHIWWNDDKSSHPALKSRLTISKDTSKNQVFLKIANVDTAETATYYCVRIGPSITTVAEGFAYWGQGTLVTVSA VL: DIVMTQSQKFMSTTVGDRVSITCKASQNVGSVVAWYQQRPGQSPTLLIYSASNRYTGVPDRFTGSGSGTDFTLTISNMQSEDLADYFCQQYSSYPLTFGAGTKLELK"
  Class Assignment: "False"
- Binder: "332C1B12 (antibody, V domains shown) VH: QVQLQQPGAELVKPGASVKLSCKASGYTFTNDNYWMNWMKQRPGRGLEWIGRIRPSDSETHYNQKFTNKATLTVDKSSSTAYIQLSSLTSVDSAVYYCARSWEDLLLRSMEDYFDYWGQGTTLTVSS VL: DIVLTQSPASLPVSLGQRATISCRASKGVSTSSYTFIHWYQQKPGQPPKLLIKYASNLESGVPARFSGSGSGTDFTLNIHPVEEEDVATYYCQHSREFPRTFGGGTKLEIK"
  Class Assignment: "True"
- Binder: "436H2C12 (antibody, V domains shown) VH: QVQLQQSGPELVKPGASVKLSCKASGYTFSDYTIHWVKQSPGQGLEWIGWIYPGRGNTKYNDKFKGKATMTADKSSSTAYMQLSSLTSEESAVYFCARDYRRYYAMDYWGQGTSVTVSS VL: NIVLTQSPASLAVSLGQRATISCRASESVDNYGNSFMHWYQQKPGQPPKLLISLASNLESGVPARFSGSGSRTDFTLTIDPVEADDAATYYCQQNNEDPRTFGGGTKLEIK"
  Class Assignment: "True"
- Binder: "348A6C1 (antibody, V domains shown) VH: QVTLRESGPGILQPSQTLSLTCSFSGFSLRTFGMGVGWIRQPSGKGLEWLAHIWWNDEKYYNPALKSRLTVSKDSSENQVFLKIANVDTTDTAPYYCARLGPSITTVAEGFPYWGQGTLVTVSA VL: DIVMTQSQKFMSTTVGDRVSITCKASQNVGAAVAWYQQKPGQPPKLLIRSASNRYIGVPDRFTGSGSGTDFTLTVSDVQSVDLADYFCQQYSNYPLTFGAGTKLELTR"
  Class Assignment: "False"
- Binder: "394F5A5 (antibody, V domains shown) VH: VTLKESGPGILQPSQTLSLTCSFSGFSLRTFGMGVGWIRQPSGKGLEWLAHIWWNDEKYYNPTLKSRLTISKDTSKNQVFLRIANVDTAVTAAYYCARIGPSITTVVEGFPYWGQGTLVTVSA VL: DIVMTQSQKFMSTTIGDRVSITCKASQNVGSAVAWYQQKPGQPPKLLIYSTSNRYTGVPDRFTGSRSGTDFTLTVSNMQSEDLADYFCQQYASYPLTFGTGTKLELK"
  Class Assignment: "False"

Reference for the values: patent US20190309034A1
